target.or.test.system: USP7 53-206, Q93009
Sequence (Q93009 53-206): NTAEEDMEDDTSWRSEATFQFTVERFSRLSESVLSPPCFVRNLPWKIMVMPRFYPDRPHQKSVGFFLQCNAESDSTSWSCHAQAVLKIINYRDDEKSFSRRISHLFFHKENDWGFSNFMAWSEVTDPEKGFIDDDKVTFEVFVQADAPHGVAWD
attribute.measured: selected by phage display

See these solved cases before continuing.
# binder, selected by phage display
data = [
    ("SQVTGMSLQIPSSSTG [MAMLD1, Q13495]", "confidence 3 (active)"),
    ("SASSSASSSASSSSVV [MEX3B, Q6ZN04]", "confidence 4 (active)"),
    ("GPSSSTTTTTTTTEQP [MAP3K1, Q13233]", "confidence 3 (active)"),
    ("VSAPGRSIEASVDVPA [AHNAK2, Q8IVF2]", "confidence 2 (active)"),
]

Challenge: If you can, please state the reported selected by phage display value of GISDGPSVSALTNGFD [PARN, O95453] .
Response given: confidence 3 (active)

Challenge: Need selected by phage display of MDTEPNPGTSSVSTTT [PHC3, Q8NDX5] , thanks.
Response given: confidence 2 (active)

Challenge: Fill in: selected by phage display of GSSGSQEQLVSIASSS [PER3, P56645] is ___
Response given: confidence 3 (active)

Challenge: Entry under review: LPSTSGSEGVPFRTVS [EPHA2, P29317] . Reported selected by phage display?
Response given: confidence 2 (active)

Challenge: Given the binder SGMVTNSVPTASSSVL [SALL1, Q9NSC2] , what is its reported selected by phage display?
Response given: confidence 4 (active)

Challenge: What selected by phage display value was documented for this binder, VPANGEMSSSHSAQSM [TP73, O15350] ?
Response given: confidence 3 (active)

Challenge: GET /values?readout=selected by phage display&item= ALSDSPSNSSYVETPR [TUBGCP5, Q96RT8]
Response given: confidence 3 (active)

Challenge: Please give the measured selected by phage display for this binder: QSHLATAGSTSSHSLQ [ESR1, P03372]
Response given: confidence 3 (active)

The measurements presented in this section are drawn from paper PMC8769072.
